- Tested on: TRPC4 (transient receptor potential cation channel C4 beta), mouse
- ASSAY_REMARKS: positive allosteric modulators of mouse TRPC4, confirmation, cell-based, second round, Fluo-4, HEK293 TRPC4beta/mu-opioid, 1 µM (AID 2554)
- TEST_PARAMETERS: DAMGO EC20, Fluo-4 calcium flux, at 1 µM
Active and inactive are the calls of the source.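 The calls were made as follows: active = primary screen hit whose fluorescence ratio, in both repeats, exceeds the weak agonist control mean by 3 SD; inactive = the rest.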
Hi there, use one of these labels in your reply, thanks! active, inactive

A selection of reference data follows.
| COMPOUND | CLASS_ASSIGNMENT |
| --- | --- |
| COc1ccc(OC)c(CN2CCCC(C(=O)c3sccc3C)C2)c1 (stereo unspecified) | inactive |
| NC(N)=N/N=C/c1ccc(N(c2ccccc2)c2ccccc2)cc1 | inactive |
| COC(=O)C(O)(c1ccc(NC(=S)NC(=O)c2ccc(Cl)cc2Cl)c(C)c1)C(F)(F)F (stereo unspecified) | inactive |
| CCOc1cc(CNCCc2c[nH]c3ccccc23)cc(Cl)c1OC | inactive |
| Cc1c(P(=S)(c2ccccc2)c2ccccc2)[n+]2ccccc2n1C | inactive |

Tell me the recorded outcome of this test for `CNCCc1nc(N)n[nH]1` .
inactive
